Biological target: T1, Nop15 WT (1xENC) (Saccharomyces cerevisiae, UniProt P53927 40-191)
T1 sequence: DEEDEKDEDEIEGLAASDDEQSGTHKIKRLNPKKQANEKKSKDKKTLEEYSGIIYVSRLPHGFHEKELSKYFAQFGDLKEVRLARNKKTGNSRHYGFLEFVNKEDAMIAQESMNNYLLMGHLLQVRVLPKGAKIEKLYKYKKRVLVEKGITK
Experiment: fluorescence polarization; 150 mM NaCl; Nop15 FP: 10 nM RNA/DNA, 20 mM Tris-HCl pH 7.5, 0.02% Tween 20, 150 or 50 mM NaCl; SRSF3 FP: 10 mM MES pH 5.5, 50 mM Arg/Glu, 0.1 mM TCEP, 0.02% Tween 20; incubated 37 °C 30 min then 25 °C 20 min, read at RT
Conditions: protein: recombinant; tags: N-terminal SUMO tag (pSMT3) cleaved with Ulp1; label: 5' fluorescein; hairpin with 8 bp stem and 9-nt single-stranded region
recorded.endpoint: Kd (nM)
Your answer should be a plain number; it is taken to be in nM.

Sample UGAGUGAUACUCUUUGGAGUUAACUUGAAAUUGCU (structured_RNA) [ITS2 III.A 26-60] — what was its Kd?
215
